The values you see were collected from patent US20240247080A1.

Biological target: hGIPR (Homo sapiens, UniProt P48546)
Construct: expressed in transfected cells; host or cells: CHO cells carrying a CRE-luciferase reporter gene
Sequence (P48546 22-466): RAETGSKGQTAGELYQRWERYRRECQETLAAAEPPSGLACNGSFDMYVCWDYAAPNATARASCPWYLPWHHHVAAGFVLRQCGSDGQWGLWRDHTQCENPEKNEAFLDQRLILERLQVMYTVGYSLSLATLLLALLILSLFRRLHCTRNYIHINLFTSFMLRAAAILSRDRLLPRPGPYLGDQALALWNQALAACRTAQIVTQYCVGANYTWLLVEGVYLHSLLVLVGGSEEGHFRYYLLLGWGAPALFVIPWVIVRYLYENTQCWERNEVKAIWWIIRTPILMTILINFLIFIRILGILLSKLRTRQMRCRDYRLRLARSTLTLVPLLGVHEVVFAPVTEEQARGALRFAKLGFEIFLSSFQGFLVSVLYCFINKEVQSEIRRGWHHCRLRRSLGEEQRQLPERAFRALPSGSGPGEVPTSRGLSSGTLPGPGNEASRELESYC
Assay: hGIPR CreLuc reporter gene assay in 0.5% and 100% plasma
Format: cell-based
Conditions: CreLuc reporter gene assay, 0.5% human plasma; read-out: hGIPR 0.5% hP
Starred links: 1 amine or outer side, 2 acyl side, 3 side chain; linkers in the order of their positions; H or OH if unused. Non-standard residues stand in square brackets, D forms with d. Groups on a side chain read outwards from the residue. No end group written: not given here. *: point of attachment. C20 diacid = O=C(O)CCCCCCCCCCCCCCCCCCC(=O)*; C18 diacid = O=C(O)CCCCCCCCCCCCCCCCC(=O)*; γGlu = O=C(O)[C@H](CCC(=O)[*:2])N[*:1]; εLys = N[C@@H](CCCCN[*:1])C(=O)[*:2]; AEEA = NCCOCCOCC(=O)O; Aib = CC(C)(N)C(=O)O
MEASURE: EC50 (nM)

SUBSTANCE | MEASURED RESULT
H-Y[Aib]EGTFTSDYSI[Aib]LEKQAQ[Aib]AFVEWLIK([AEEA-AEEA-γGlu-γGlu-γGlu-C18 diacid])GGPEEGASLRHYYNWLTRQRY-NH2 [Compound 248] | 0.12
H-Y[Aib]EGTFTSDYSI[Aib]LEKQAQ[Aib]AFVQWLIK([γGlu-γGlu-γGlu-γGlu-γGlu-C18 diacid])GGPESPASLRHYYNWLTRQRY-NH2 [Compound 12] | 0.14
H-Y[Aib]EGTFTSDYSI[Aib]LEKQAQ[Aib]AFVEWLIK([AEEA-AEEA-γGlu-γGlu-γGlu-γGlu-C18 diacid])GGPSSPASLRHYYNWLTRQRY-NH2 [Compound 158] | 0.11
H-Y[Aib]EGTFTSDYSI[Aib]LEKQAQ[Aib]AFVEWLIK([AEEA-AEEA-γGlu-γGlu-γGlu-C18 diacid])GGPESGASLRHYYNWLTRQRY-NH2 [Compound 166] | 0.08
H-Y[Aib]EGTFTSDYSI[Aib]LEKQAQ[Aib]AFVQWLIK([εLys-γGlu-γGlu-γGlu-γGlu-γGlu-C18 diacid])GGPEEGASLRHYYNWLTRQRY-NH2 [Compound 143] | 0.22
H-Y[Aib]EGTFTSDYSI[Aib]LEKQAQ[Aib]AFVEWLIK([εLys-γGlu-γGlu-γGlu-γGlu-γGlu-γGlu-C20 diacid])GGPSSPQSLRHYYNWLTRQRY-NH2 [Compound 41] | 0.07
H-Y[Aib]EGTFTSDYSI[Aib]LEKQAQ[Aib]AFVEWLIK([γGlu-γGlu-γGlu-γGlu-γGlu-γGlu-C20 diacid])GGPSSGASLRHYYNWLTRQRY-NH2 [Compound 235] | 0.34
Y[Aib]EGTFTSDYSI[Aib]LEKQAQ[Aib]AFVEWLIK([εLys-γGlu-γGlu-γGlu-γGlu-γGlu-γGlu-γGlu-C20 diacid])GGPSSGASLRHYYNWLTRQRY-NH2 [Compound 225] | 0.28
H-Y[Aib]EGTFTSDYSI[Aib]LEKQAQ[Aib]AFVQWLIK([εLys-γGlu-γGlu-γGlu-γGlu-γGlu-γGlu-C18 diacid])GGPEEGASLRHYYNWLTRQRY-NH2 [Compound 149] | 0.58
Y[Aib]EGTFTSDYSI[Aib]LEKQAQ[Aib]AFVEWLIK([AEEA-AEEA-γGlu-γGlu-γGlu-γGlu-γGlu-C20 diacid])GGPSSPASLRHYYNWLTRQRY-NH2 [Compound 120] | 0.34
